- EXPERIMENTAL_TARGET: T1, human plasmin (human, UniProt P00747 97-810, limits assumed)
- T1 construct: also called plasmin-beads; plasmin-agarose beads
- T1 sequence (P00747 97-810 limits assumed): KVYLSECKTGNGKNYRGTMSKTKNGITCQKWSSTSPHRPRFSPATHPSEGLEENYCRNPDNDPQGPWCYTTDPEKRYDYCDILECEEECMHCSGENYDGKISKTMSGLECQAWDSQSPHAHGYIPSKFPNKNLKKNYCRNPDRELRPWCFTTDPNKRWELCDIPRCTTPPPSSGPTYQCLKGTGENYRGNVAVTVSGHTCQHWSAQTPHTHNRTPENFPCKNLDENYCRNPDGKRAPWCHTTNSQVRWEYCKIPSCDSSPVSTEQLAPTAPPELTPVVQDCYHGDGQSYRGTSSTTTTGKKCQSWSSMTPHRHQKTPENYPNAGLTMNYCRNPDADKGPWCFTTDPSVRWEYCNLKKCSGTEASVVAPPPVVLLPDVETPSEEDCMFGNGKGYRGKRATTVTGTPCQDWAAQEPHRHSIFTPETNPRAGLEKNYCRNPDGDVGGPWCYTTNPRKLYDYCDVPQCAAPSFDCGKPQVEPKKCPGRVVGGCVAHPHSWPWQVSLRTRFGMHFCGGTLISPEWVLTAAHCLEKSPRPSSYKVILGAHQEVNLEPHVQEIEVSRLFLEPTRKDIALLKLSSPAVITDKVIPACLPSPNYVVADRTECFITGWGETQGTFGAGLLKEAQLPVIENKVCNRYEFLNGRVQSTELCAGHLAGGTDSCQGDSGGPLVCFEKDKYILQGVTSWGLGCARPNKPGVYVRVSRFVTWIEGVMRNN
- EXPERIMENT_DESCRIPTION: preliminary plasmin inhibition test; measured Ki used as KD
pKd: −log10 of the molar value.
RESULT_TYPE: pKd

binder="SPI51 (designed binder) MHSFCAFKADAGPCRAKFERFFFNIFTRQCTAFFYGGCGGNQNRFESLEECKKMCTRD" result_type=pKd result=~9.30
binder="SPI22 (designed binder, also called isolate 22) MHSFCAFKADGGPCKGKFPRFFFNIFTRQCEEFIYGGCEGNQNRFESLEECKKMCTRD" result_type=pKd result="< 8.70"
binder="SPI43 (designed binder) MHSFCAFKAETGPCRGKFDRWFFNIFTRQCESFHYGGCKGNQNRFESLEECKKMCTRD" result_type=pKd result="< 8.40"
binder="SPI47 (designed binder) MHSFCAFKADAGPCRAKFERFFFNIFTRQCEEFIYGGCEGNQNRFESLEECKKMCTRD" result_type=pKd result=~9.10
binder="SPI54 (designed binder) MHSFCAFKADSGPCRARFDRWFFNIFTRQCTRFPYGGCGGNQNRFESLEECKKMCTRD" result_type=pKd result="< 8.40"
binder="SPI23 (designed binder, also called isolate 23) MHSFCAFKAEGGPCRAKFQRWFFNIFTRQCEEFIYGGCEGNQNRFESLEECKKMCTRD" result_type=pKd result=~9.30
